The reported measurements were obtained from paper PMC5540273.

Record form. Attribute: %Inh. Fill in for each entry.
system: HUNK; settings: concentration: 1 μM, replicates: in singlicate; n = 1;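 further: KINOMEscan kinase panel screen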
Give the quantity in %, number only.

In plain terms, Cc1ccc(-c2ccc3occ(-c4ccc(S(C)=O)cc4)c3c2)nn1 (centres unmarked) has a documented %Inh of 0

In plain terms, CN(c1ccc(NC(=O)Nc2cccc(Cl)c2)cc1)c1ccnc(N)n1.Cl has a documented %Inh of 51

In plain terms, CCn1cnc2c(NCc3ccccc3)ncnc21 has a documented %Inh of 48

In plain terms, Cc1cccc(Nc2nc(NCCN)ncc2C(N)=O)c1 has a documented %Inh of 0

In plain terms, O=C1NC(=O)C(c2ccccc2Cl)=C1Nc1cccc(Cl)c1 has a documented %Inh of 0

In plain terms, O=C(Nc1n[nH]c2cc(-c3cccs3)ccc12)C1CC1 has a documented %Inh of 0

In plain terms, COC(=O)Nc1nc2ccc(Oc3ccc(NC(=O)Nc4cc(C(F)(F)F)ccc4F)cc3)cc2[nH]1.Cl has a documented %Inh of 8

In plain terms, COc1cc(Nc2nccc(N3CCC(NC(=O)Nc4ccc5c(c4)OCO5)C3)n2)cc(OC)c1OC (centres unmarked) has a documented %Inh of 0

In plain terms, Cc1ccc(NC(=O)c2cccc(N3CCCCC3)c2)cc1-c1ccc(C(=O)NCC2CC2)cc1 has a documented %Inh of 0

In plain terms, Cl.O=C(Nc1ccc(Oc2ccc3[nH]c(NC(=O)c4ccco4)nc3c2)cc1)Nc1cc(C(F)(F)F)ccc1F has a documented %Inh of 0

In plain terms, CSc1ccc(NC2=C(c3ccc(Cl)cc3)C(=O)NC2=O)cc1 has a documented %Inh of 4
